Each recorded value in this set is attributed to paper PMC7337490.

target: survivin;borealin 10-109;INCENP 1-80 (CPI80) (human;human;human, UniProt O15392;Q53HL2;Q9NQS7 1-142;10-109;1-80, ||); assay: MST; 100 mM NaCl, 20 mM Tris-HCl pH 7.4, 1 mM DTT, 2 h on ice; MST 0.04 uM duplex, 0.1-200 uM protein; EMSA 0.15 pmol plasmid in 20 ul, 0.8% agarose; conditions: protein: recombinant;recombinant;recombinant; tags: N-terminal His (tag cleavage stated for complex);;His6-GST, cleaved by HRV 3C; copies: 1;1;1; label: Alexa 488 on forward strand; blunt
Sequence (O15392 whole entry, chain 1 of 3): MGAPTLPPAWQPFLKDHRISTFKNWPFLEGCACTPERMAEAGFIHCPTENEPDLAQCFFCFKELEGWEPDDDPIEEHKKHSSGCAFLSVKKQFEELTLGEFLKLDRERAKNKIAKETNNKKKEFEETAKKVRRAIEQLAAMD
Sequence (Q53HL2 10-109, chain 2 of 3): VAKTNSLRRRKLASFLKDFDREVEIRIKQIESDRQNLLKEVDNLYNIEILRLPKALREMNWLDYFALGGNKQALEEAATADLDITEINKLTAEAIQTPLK
Sequence (Q9NQS7 1-80, chain 3 of 3): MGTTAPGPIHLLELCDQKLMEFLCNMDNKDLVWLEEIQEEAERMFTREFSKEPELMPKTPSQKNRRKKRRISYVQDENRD
metric: Kd

1. non-alpha-satellite 40 bp (dsDNA) DNA 1: ATTCCATGGCACCGTCAAGGCTGAGAACGGGAAGCTTGTC DNA 2: GACAAGCTTCCCGTTCTCAGCCTTGACGGTGCCATGGAAT : 29.7 µM
2. centromeric alpha-satellite consensus 40 bp (dsDNA) DNA 1: ATTCAACTCACAGAGTTGAACCTTCCTTTTCATAGAGCAG DNA 2: CTGCTCTATGAAAAGGAAGGTTCAACTCTGTGAGTTGAAT : 23.6 µM
